assayed_system: equine serum BChE (Equus caballus, UniProt P81908)
Construct: we used human erythrocyte AChE, equine serum BChE, and porcine liver CES; purchased Sigma-Aldrich; host or cells: equine serum
Sequence (P81908 whole entry): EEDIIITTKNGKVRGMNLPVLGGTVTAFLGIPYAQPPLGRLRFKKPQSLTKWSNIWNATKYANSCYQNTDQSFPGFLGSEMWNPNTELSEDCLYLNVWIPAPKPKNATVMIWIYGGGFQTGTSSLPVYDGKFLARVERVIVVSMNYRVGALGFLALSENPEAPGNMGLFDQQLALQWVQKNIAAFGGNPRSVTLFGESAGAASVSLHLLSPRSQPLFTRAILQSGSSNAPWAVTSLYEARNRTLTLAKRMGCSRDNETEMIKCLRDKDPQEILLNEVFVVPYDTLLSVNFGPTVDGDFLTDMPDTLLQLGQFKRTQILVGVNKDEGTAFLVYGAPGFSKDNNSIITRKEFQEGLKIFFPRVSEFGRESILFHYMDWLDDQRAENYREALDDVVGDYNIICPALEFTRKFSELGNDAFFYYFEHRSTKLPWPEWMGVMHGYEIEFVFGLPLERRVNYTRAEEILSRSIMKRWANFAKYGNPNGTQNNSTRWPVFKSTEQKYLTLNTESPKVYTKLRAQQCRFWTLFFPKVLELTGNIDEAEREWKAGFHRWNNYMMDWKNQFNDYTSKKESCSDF
experiment_summary: biochemical
cond: MEAN ± SEM, n = 3; read-out: IC50 for BChE inhibition (Figure S25)
quantity_measured: IC50
Answer by giving the amount and then stating its unit.

Hello, please tell me recorded IC50 for this one: O=C(CNCCCCNCC(=O)Nc1c2c(nc3c1CCC3)CCCC2)Nc1c2c(nc3c1CCC3)CCCC2
69.6 nM

* * *

assayed_system: EeAChE PAS (Electrophorus electricus, UniProt O42275)
Construct: purchased Sigma-Aldrich type VI-S
Sequence (O42275 24-633): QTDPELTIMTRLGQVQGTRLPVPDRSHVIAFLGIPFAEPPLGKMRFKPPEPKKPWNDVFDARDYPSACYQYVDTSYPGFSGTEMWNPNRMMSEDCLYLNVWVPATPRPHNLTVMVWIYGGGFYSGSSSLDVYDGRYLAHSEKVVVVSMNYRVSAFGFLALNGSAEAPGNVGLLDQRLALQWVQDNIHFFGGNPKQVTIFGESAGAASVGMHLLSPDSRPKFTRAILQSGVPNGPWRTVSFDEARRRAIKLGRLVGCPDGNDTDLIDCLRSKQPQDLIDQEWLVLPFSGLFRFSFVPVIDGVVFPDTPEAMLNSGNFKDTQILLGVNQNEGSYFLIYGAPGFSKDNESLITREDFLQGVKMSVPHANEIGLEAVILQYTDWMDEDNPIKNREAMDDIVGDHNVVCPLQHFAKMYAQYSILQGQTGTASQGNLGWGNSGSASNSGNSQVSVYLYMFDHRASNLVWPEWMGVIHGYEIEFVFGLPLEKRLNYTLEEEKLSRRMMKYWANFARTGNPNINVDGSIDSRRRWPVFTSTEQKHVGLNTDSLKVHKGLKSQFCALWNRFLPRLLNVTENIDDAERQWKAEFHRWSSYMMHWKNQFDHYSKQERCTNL
experiment_summary: Propidium iodide displacement from the PAS of EeAChE
Assay type: binding, Electric eel
cond: compound concentration 20 µM
Displacement of Propidium from EeAChE PAS listing for selected compounds.
Answer in %, number only, no unit symbol.

INSERT INTO measurements (compound, value_observed) VALUES
  ('S=C(NCCCCCCCCNC(=S)Nc1c2c(nc3c1CCC3)CCCC2)Nc1c2c(nc3c1CCC3)CCCC2 [Compound 5g]', 2.2),
  ('S=C(NCCCCNC(=S)Nc1c2c(nc3c1CCC3)CCCC2)Nc1c2c(nc3c1CCC3)CCCC2 [Compound 5c]', 10.0),
  ('S=C(NCCCCCNC(=S)Nc1c2c(nc3c1CCC3)CCCC2)Nc1c2c(nc3c1CCC3)CCCC2 [Compound 5d]', 11.2),
  ('S=C(NCCCCCCCNC(=S)Nc1c2c(nc3c1CCC3)CCCC2)Nc1c2c(nc3c1CCC3)CCCC2 [Compound 5f]', 2.5),
  ('O=C(CNCCNCC(=O)Nc1c2c(nc3c1CCC3)CCCC2)Nc1c2c(nc3c1CCC3)CCCC2 [Compound 3a]', 14.4),
  ('O=C(CNCCCCNCC(=O)Nc1c2c(nc3c1CCC3)CCCC2)Nc1c2c(nc3c1CCC3)CCCC2 [Compound 3c]', 17.7);

Hello, please tell me recorded Displacement of Propidium from EeAChE PAS for this one: S=C(NCCNC(=S)Nc1c2c(nc3c1CCC3)CCCC2)Nc1c2c(nc3c1CCC3)CCCC2 [Compound 5a]
7.6

* * *

Displacement of Propidium from EeAChE PAS listing for selected compounds.
assayed_system: EeAChE PAS (Electrophorus electricus, UniProt O42275)
Construct: purchased Sigma-Aldrich type VI-S
experiment_summary: Propidium iodide displacement from the PAS of EeAChE
Assay type: binding, Electric eel
cond: compound concentration 20 µM
Answer in %, number only, no unit symbol.

Fill: Displacement of Propidium from EeAChE PAS (EeAChE PAS (Electrophorus electricus, UniProt O42275)) for this compound O=C(CNCCCCCCNCC(=O)Nc1c2c(nc3c1CCC3)CCCC2)Nc1c2c(nc3c1CCC3)CCCC2
11.2

Fill: Displacement of Propidium from EeAChE PAS (EeAChE PAS (Electrophorus electricus, UniProt O42275)) for this compound O=C(CNCCCCCCCCNCC(=O)Nc1c2c(nc3c1CCC3)CCCC2)Nc1c2c(nc3c1CCC3)CCCC2
13.2

Fill: Displacement of Propidium from EeAChE PAS (EeAChE PAS (Electrophorus electricus, UniProt O42275)) for this compound S=C(NCCCNC(=S)Nc1c2c(nc3c1CCC3)CCCC2)Nc1c2c(nc3c1CCC3)CCCC2
9.3

Fill: Displacement of Propidium from EeAChE PAS (EeAChE PAS (Electrophorus electricus, UniProt O42275)) for this compound O=C(CNCCCNCC(=O)Nc1c2c(nc3c1CCC3)CCCC2)Nc1c2c(nc3c1CCC3)CCCC2
14.7

Fill: Displacement of Propidium from EeAChE PAS (EeAChE PAS (Electrophorus electricus, UniProt O42275)) for this compound S=C(NCCCCCCNC(=S)Nc1c2c(nc3c1CCC3)CCCC2)Nc1c2c(nc3c1CCC3)CCCC2
11.1

* * *

assayed_system: equine serum BChE (Equus caballus)
Construct: we used human erythrocyte AChE, equine serum BChE, and porcine liver CES; purchased Sigma-Aldrich; host or cells: equine serum
experiment_summary: biochemical
cond: mean ± SEM, n = 3; read-out: Equine Serum BChE, IC50
# if measured IC50 < 1000 nM: true (1)  # else: false (0)

Some solved cases for reference:
INSERT INTO measurements (smiles_structure, group_label) VALUES
  ('S=C(NCCCCCCCNC(=S)Nc1c2c(nc3c1CCC3)CCCC2)Nc1c2c(nc3c1CCC3)CCCC2', 'false (0)'),
  ('S=C(NCCNC(=S)Nc1c2c(nc3c1CCC3)CCCC2)Nc1c2c(nc3c1CCC3)CCCC2', 'false (0)'),
  ('S=C(NCCCNC(=S)Nc1c2c(nc3c1CCC3)CCCC2)Nc1c2c(nc3c1CCC3)CCCC2', 'true (1)'),
  ('O=C(CNCCCCCCNCC(=O)Nc1c2c(nc3c1CCC3)CCCC2)Nc1c2c(nc3c1CCC3)CCCC2', 'false (0)'),
  ('O=C(CNCCNCC(=O)Nc1c2c(nc3c1CCC3)CCCC2)Nc1c2c(nc3c1CCC3)CCCC2', 'true (1)');

Lab note: IC50 threshold 1000 nM. Does this molecule come in strictly under it? O=C(CNCCCCCCCCNCC(=O)Nc1c2c(nc3c1CCC3)CCCC2)Nc1c2c(nc3c1CCC3)CCCC2
false (0)

Lab note: IC50 threshold 1000 nM. Does this molecule come in strictly under it? S=C(NCCCCNC(=S)Nc1c2c(nc3c1CCC3)CCCC2)Nc1c2c(nc3c1CCC3)CCCC2
true (1)

* * *

experiment_summary: ABTS radical cation scavenging activity assay
cond: 1 h incubation, ABTS•+ 100 μM
Procedure: Radical scavenging activity of the compounds was assessed using the ABTS radical cation (ABTS^•+) decolorization assay with modifications, described in detail in [30, 32]. […] The reaction was monitored for 1 h with an interval of 1–10 min. […] The reduction in absorbance was measured spectrophotometrically at 734 nm using xMark UV/VIS microplate spectrophotometer (Bio-Rad, Hercules, CA, USA). […]
IC50 listing for selected molecules.
Answer in µM, number only, no unit symbol.

Hello, please tell me recorded IC50 for this one: S=C(NCCCCCCCCNC(=S)Nc1c2c(nc3c1CCC3)CCCC2)Nc1c2c(nc3c1CCC3)CCCC2
10.8

Hello, please tell me recorded IC50 for this one: S=C(NCCNC(=S)Nc1c2c(nc3c1CCC3)CCCC2)Nc1c2c(nc3c1CCC3)CCCC2
7.6

* * *

assayed_system: equine serum BChE (Equus caballus, UniProt P81908)
Construct: we used human erythrocyte AChE, equine serum BChE, and porcine liver CES; purchased Sigma-Aldrich; host or cells: equine serum
experiment_summary: biochemical
cond: mean ± SEM, n = 3; read-out: Equine Serum BChE, IC50
quantity_measured: IC50
Answer by giving the amount and then stating its unit.

Worked examples, 3 compounds total:
INSERT INTO assay_data (smiles_structure, value_observed) VALUES
  ('O=C(CNCCCCNCC(=O)Nc1c2c(nc3c1CCC3)CCCC2)Nc1c2c(nc3c1CCC3)CCCC2', '67 nM'),
  ('O=C(CNCCCNCC(=O)Nc1c2c(nc3c1CCC3)CCCC2)Nc1c2c(nc3c1CCC3)CCCC2', '128 nM'),
  ('S=C(NCCCCCCNC(=S)Nc1c2c(nc3c1CCC3)CCCC2)Nc1c2c(nc3c1CCC3)CCCC2', '769 nM');

Now look at this one.
Hello, please tell me recorded IC50 for this one: S=C(NCCCCCCCCNC(=S)Nc1c2c(nc3c1CCC3)CCCC2)Nc1c2c(nc3c1CCC3)CCCC2
1450 nM

* * *

pIC50 listing for selected compounds.
assayed_system: UniProt:P22303
Sequence (P22303 other isoform, or with tags, fused parts or gaps): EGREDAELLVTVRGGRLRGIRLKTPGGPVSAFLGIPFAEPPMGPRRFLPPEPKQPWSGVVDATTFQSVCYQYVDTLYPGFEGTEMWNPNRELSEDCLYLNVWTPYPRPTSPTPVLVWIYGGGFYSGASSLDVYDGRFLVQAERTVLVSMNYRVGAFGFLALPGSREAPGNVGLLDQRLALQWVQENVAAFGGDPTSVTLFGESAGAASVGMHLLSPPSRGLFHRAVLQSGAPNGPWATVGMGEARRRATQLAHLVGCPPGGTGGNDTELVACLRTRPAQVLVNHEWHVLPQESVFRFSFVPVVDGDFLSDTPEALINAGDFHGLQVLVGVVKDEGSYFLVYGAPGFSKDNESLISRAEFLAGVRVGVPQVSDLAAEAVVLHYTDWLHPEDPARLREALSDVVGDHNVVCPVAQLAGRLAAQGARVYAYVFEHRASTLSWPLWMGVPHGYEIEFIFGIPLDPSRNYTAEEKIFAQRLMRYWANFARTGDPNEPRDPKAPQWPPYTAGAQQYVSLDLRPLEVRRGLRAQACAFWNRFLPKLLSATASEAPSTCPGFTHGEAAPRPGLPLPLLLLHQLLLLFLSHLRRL
Entry type: numeric. Quantity: pIC50, the -log10 of concentration in molar units.

Worked examples, 5 compounds total:
INSERT INTO results (compound, value_observed) VALUES
  ('O=C(CNCCCCNCC(=O)Nc1c2c(nc3c1CCC3)CCCC2)Nc1c2c(nc3c1CCC3)CCCC2 [Compound 3c]', 5.84),
  ('O=C(CNCCCCCCCCNCC(=O)Nc1c2c(nc3c1CCC3)CCCC2)Nc1c2c(nc3c1CCC3)CCCC2 [Compound 3e]', 4.93),
  ('S=C(NCCCCNC(=S)Nc1c2c(nc3c1CCC3)CCCC2)Nc1c2c(nc3c1CCC3)CCCC2 [Compound 5c]', 5.12),
  ('S=C(NCCCCCCNC(=S)Nc1c2c(nc3c1CCC3)CCCC2)Nc1c2c(nc3c1CCC3)CCCC2 [Compound 5e]', 5.39),
  ('O=C(CNCCNCC(=O)Nc1c2c(nc3c1CCC3)CCCC2)Nc1c2c(nc3c1CCC3)CCCC2 [Compound 3a]', 5.79);

Hello, please tell me recorded pIC50 for this one: S=C(NCCCCCCCCNC(=S)Nc1c2c(nc3c1CCC3)CCCC2)Nc1c2c(nc3c1CCC3)CCCC2 [Compound 5g]
4.58

Hello, please tell me recorded pIC50 for this one: S=C(NCCCCCNC(=S)Nc1c2c(nc3c1CCC3)CCCC2)Nc1c2c(nc3c1CCC3)CCCC2 [Compound 5d]
5.40

Hello, please tell me recorded pIC50 for this one: S=C(NCCCCCCCNC(=S)Nc1c2c(nc3c1CCC3)CCCC2)Nc1c2c(nc3c1CCC3)CCCC2 [Compound 5f]
5.20

Hello, please tell me recorded pIC50 for this one: S=C(NCCCNC(=S)Nc1c2c(nc3c1CCC3)CCCC2)Nc1c2c(nc3c1CCC3)CCCC2 [Compound 5b]
4.96

Hello, please tell me recorded pIC50 for this one: S=C(NCCNC(=S)Nc1c2c(nc3c1CCC3)CCCC2)Nc1c2c(nc3c1CCC3)CCCC2 [Compound 5a]
4.02

Hello, please tell me recorded pIC50 for this one: O=C(CNCCCCCCNCC(=O)Nc1c2c(nc3c1CCC3)CCCC2)Nc1c2c(nc3c1CCC3)CCCC2 [Compound 3d]
5.86

Hello, please tell me recorded pIC50 for this one: O=C(CNCCCNCC(=O)Nc1c2c(nc3c1CCC3)CCCC2)Nc1c2c(nc3c1CCC3)CCCC2 [Compound 3b]
5.54
